Target: T1, IL-12 p40 C177F variant (human, UniProt P29460 23-328)
T1 sequence: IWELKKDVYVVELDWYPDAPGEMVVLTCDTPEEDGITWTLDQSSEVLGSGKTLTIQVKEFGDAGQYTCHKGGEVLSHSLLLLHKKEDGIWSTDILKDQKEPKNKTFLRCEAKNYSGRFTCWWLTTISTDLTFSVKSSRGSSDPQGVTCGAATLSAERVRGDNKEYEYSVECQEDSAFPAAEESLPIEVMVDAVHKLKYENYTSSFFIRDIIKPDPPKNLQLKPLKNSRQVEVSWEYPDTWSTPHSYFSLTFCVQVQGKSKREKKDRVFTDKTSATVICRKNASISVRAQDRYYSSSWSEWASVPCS
Experiment: BLI (Octet), p35 C74 variant against p40 C177F
Listing: pKd of selected binders
Please express pKd as -log10 of the molar concentration.

For orientation, consider the following solved cases.
IL-12 p35 C74K variant (other) RNLPVATPDPGMFPCLHHSQNLLRAVSNMLQKARQTLEFYPCTSEEIDHEDITKDKTSTVEACLPLELTKNESKLNSRETSFITNGSCLASRKTSFMMALCLSSIYEDLKMYQVEFKTMNAKLLMDPKRQIFLDQNMLAVIDELMQALNFNSETVPQKSSLEEPDFYKTKIKLCILLHAFRIRAVTIDRVMSYLNAS : 7.74
IL-12 p35 C74Y variant (other) RNLPVATPDPGMFPCLHHSQNLLRAVSNMLQKARQTLEFYPCTSEEIDHEDITKDKTSTVEACLPLELTKNESYLNSRETSFITNGSCLASRKTSFMMALCLSSIYEDLKMYQVEFKTMNAKLLMDPKRQIFLDQNMLAVIDELMQALNFNSETVPQKSSLEEPDFYKTKIKLCILLHAFRIRAVTIDRVMSYLNAS : 7.62
IL-12 p35 C74D variant (other) RNLPVATPDPGMFPCLHHSQNLLRAVSNMLQKARQTLEFYPCTSEEIDHEDITKDKTSTVEACLPLELTKNESDLNSRETSFITNGSCLASRKTSFMMALCLSSIYEDLKMYQVEFKTMNAKLLMDPKRQIFLDQNMLAVIDELMQALNFNSETVPQKSSLEEPDFYKTKIKLCILLHAFRIRAVTIDRVMSYLNAS : 7.22

The record that follows has no pKd shown yet.
q: Looking for the measured pKd of IL-12 p35 C74W variant (other) RNLPVATPDPGMFPCLHHSQNLLRAVSNMLQKARQTLEFYPCTSEEIDHEDITKDKTSTVEACLPLELTKNESWLNSRETSFITNGSCLASRKTSFMMALCLSSIYEDLKMYQVEFKTMNAKLLMDPKRQIFLDQNMLAVIDELMQALNFNSETVPQKSSLEEPDFYKTKIKLCILLHAFRIRAVTIDRVMSYLNAS , can you help?
a: 7.60

Recorded values, source patent US20220340678A1.
